Where these numbers come from: patent US12582681B2

Tested on: Lactobacillus reuteri CECT 9859
Assay: Broth microdilution MIC (MRS and LSM medium); also: key: S, susceptible; R, resistant
Format: cell-based
Conditions: MRS medium; against EFSA (2018) breakpoints
observable: Category (MRS)

# annotated cases, reported Category (MRS) shown
- NC[C@H]1O[C@H](O[C@H]2[C@H](O)[C@@H](O[C@H]3O[C@H](CO)[C@@H](O)[C@H](N)[C@H]3O)[C@H](N)C[C@@H]2N)[C@H](O)[C@@H](O)[C@@H]1O: R
- CN[C@H](CC(C)C)C(=O)N[C@H]1C(=O)N[C@@H](CC(N)=O)C(=O)N[C@H]2C(=O)N[C@H]3C(=O)N[C@H](C(=O)N[C@H](C(=O)O)c4cc(O)cc(O)c4-c4cc3ccc4O)[C@H](O)c3ccc(c(Cl)c3)Oc3cc2cc(c3O[C@@H]2O[C@H](CO)[C@@H](O)[C@H](O)[C@H]2O[C@H]2C[C@](C)(N)[C@H](O)[C@H](C)O2)Oc2ccc(cc2Cl)[C@H]1O: R
- CC[C@H]1OC(=O)[C@H](C)[C@@H](O[C@H]2C[C@@](C)(OC)[C@@H](O)[C@H](C)O2)[C@H](C)[C@@H](O[C@@H]2O[C@H](C)C[C@H](N(C)C)[C@H]2O)[C@](C)(O)C[C@@H](C)C(=O)[C@H](C)[C@@H](O)[C@]1(C)O: S
- [H]/N=C(/N)N[C@H]1[C@H](O)[C@@H](O)[C@H](O[C@@H]2O[C@@H](C)[C@](O)(C=O)[C@H]2O[C@@H]2O[C@@H](CO)[C@H](O)[C@@H](O)[C@@H]2NC)[C@@H](N/C(N)=N\[H])[C@@H]1O: R

Using the record for O=C(N[C@H](CO)[C@H](O)c1ccc([N+](=O)[O-])cc1)C(Cl)Cl , report its Category (MRS).
S

GET /values?readout=Category (MRS)&item= CN(C)[C@@H]1C(O)=C(C(N)=O)C(=O)[C@@]2(O)C(O)=C3C(=O)c4c(O)cccc4[C@@](C)(O)[C@H]3C[C@@H]12
S

Return reported Category (MRS); argument: CCC[C@@H]1C[C@@H](C(=O)N[C@@H]([C@H]2O[C@H](SC)[C@H](O)[C@@H](O)[C@H]2O)[C@H](C)Cl)N(C)C1
S

Query (compound): CC1(C)S[C@@H]2[C@H](NC(=O)[C@H](N)c3ccccc3)C(=O)N2[C@H]1C(=O)O ; field requested: Category (MRS)
S
